Provide the recorded pIC50 for the entries that follow.
assay: Cytotoxicity against human RWPE1 cells assessed as cell viability after 24 hrs by MTT assay; assay type: cell-based; conditions: RWPE-1, 24 h
pIC50: −log10 of the molar value.

- C[C@@H]1C(=O)[C@@]23CC[C@@H]4C(C)(C)CCC[C@@]4(C)[C@@H]2[C@@H](O)C[C@@H]1C3: < 4.30
- C=C1C[C@]23C[C@H]1CC[C@H]2[C@@]1(C)[C@H](C[C@H]3O)C(C)(C)CC[C@@H]1O: < 4.30
- C=C1[C@@H]2CC[C@H]3[C@]4(C)CCCC(C)(C)[C@H]4C[C@@H](O)[C@]3(C2)[C@@H]1O: < 4.30
- C=C1C[C@@]23CC[C@H]4[C@@](C)(CCC[C@]4(C)C(=O)O)[C@@H]2CC[C@@H]1C3: < 4.30
- C=C1C(=O)[C@@]23CC[C@H]4[C@@](C)(CCC[C@@]4(C)C(=O)OC)[C@@H]2CC[C@]1(O)C3: 5.15

Hi! Can you tell me pIC50 for each of these compounds?
1. C[C@H]1C(=O)[C@@]23C[C@H](O)[C@@H]4[C@@](C)(CO)CCC[C@@]4(C)C2=CC[C@]1(O)C3
2. C=C1[C@@H]2CC[C@H]3[C@]4(C)CCCC(C)(C)[C@H]4[C@@H](O)C[C@]3(C2)[C@@H]1O
3. C[C@H]1C(=O)[C@@]23CC[C@@H]4C(C)(C)CCC[C@@]4(C)[C@@H]2[C@@H](O)C[C@@H]1C3
4. C=C1[C@@H]2C[C@@H](O)[C@H]3[C@]4(C)CCCC(C)(C)[C@H]4CC[C@]3(C2)[C@@H]1O
5. C=C1C(=O)[C@@]23CC[C@@H]4C(C)(C)CCC[C@@]4(C)C2=CC[C@]1(O)C3
6. C=C1C(=O)[C@H]2C[C@]1(O)CC1=C2[C@]2(C)CCCC(C)(C)[C@H]2CC1
7. C=C1[C@@H]2CC[C@]3(O)[C@@](CC[C@@H]4C(C)(C)CCC[C@]43C)(C2)[C@@H]1O

1. < 4.30
2. < 4.30
3. < 4.30
4. < 4.30
5. 5.21
6. 5.20
7. < 4.30

* * *

Record form. Attribute: IC50. Fill in for each entry.
tested on: LoVo; assay: Cytotoxicity against human LoVo cells assessed as cell viability after 24 hrs by MTT assay; assay type: functional, cell-based

Below: 8 compounds and their reported IC50.
* C=C1C(=O)[C@@]23CC[C@@H]4C(C)(C)CCC[C@@]4(C)C2=CC[C@]1(O)C3 | 1.8 µM
* C[C@@H]1C(=O)[C@H]2C[C@]1(O)CC1=C2[C@]2(C)CCC[C@](C)(CO)[C@H]2CC1 | > 50 µM
* C=C1[C@@H]2CC(=O)[C@H]3[C@]4(C)CCCC(C)(C)[C@H]4[C@@H](O)[C@@H](O)[C@]3(C2)[C@@H]1O | > 50 µM
* C=C1C(=O)[C@H]2C[C@@H]1CC1=C2[C@]2(C)CCC[C@](C)(CO)[C@H]2CC1 | 35.2 µM
* C=C1C[C@]23C[C@H]1CC[C@H]2[C@@]1(C)[C@H](C[C@H]3OC(C)=O)C(C)(C)CC[C@@H]1O | > 50 µM
* C[C@@H]1C(=O)[C@@]23CC[C@@H]4[C@@](C)(CO)CCC[C@@]4(C)C2=CC[C@]1(O)C3 | > 50 µM
* C[C@@H]1C(=O)[C@@]23CC[C@@H]4C(C)(C)[C@H](O)CC[C@@]4(C)[C@@H]2[C@@H](O)C[C@@H]1C3 | > 50 µM
* C[C@H]1C(=O)[C@@]23CC[C@@H]4C(C)(C)CCC[C@@]4(C)[C@@H]2[C@@H](O)C[C@@H]1C3 | > 50 µM

Next item in the queue.
Report IC50, nothing else, for this compound: `CC1=C[C@]23C[C@H]1CC[C@H]2[C@@]1(C)[C@H](C[C@H]3O)C(C)(C)CC[C@@H]1O`
> 50 µM

* * *

test system: LoVo; experiment: Cytotoxicity against human LoVo cells assessed as cell viability after 24 hrs by MTT assay; assay type: functional, cell-based
test-readout: IC50

Use these answered entries as a reference point.
- C=C1[C@@H]2C[C@@H](O)[C@H]3[C@]4(C)CCCC(C)(C)[C@H]4CC[C@]3(C2)[C@@H]1O: > 50 µM
- C[C@@H]1C(=O)[C@H]2C[C@]1(O)CC1=C2[C@]2(C)CCC[C@@](C)(CO)[C@H]2CC1: > 50 µM
- C=C1C(=O)[C@@]23CC[C@@H]4C(C)(C)CCC[C@@]4(C)[C@@H]2[C@@H](O)C[C@@H]1C3: 1.4 µM
- C[C@@H]1C(=O)[C@@]23CC[C@@H]4C(C)(C)CCC[C@@]4(C)[C@@H]2[C@@H](O)C[C@@H]1C3: > 50 µM
- C=C1[C@@H]2C[C@H](O)[C@H]3[C@]4(C)CCCC(C)(C)[C@H]4CC[C@]3(C2)[C@@H]1O: > 50 µM
- C=C1C(=O)[C@@]23CC[C@@H]4[C@@](C)(C=O)CCC[C@@]4(C)C2=CC[C@]1(O)C3: 9.3 µM

Determine reported IC50 for `C=C1C(=O)[C@@]23CC[C@@H]4[C@](C)(CO)CCC[C@@]4(C)C2=CC[C@]1(O)C3` ; test system: LoVo.
18.4 µM

* * *

Please provide measured IC50 for the entries that follow.
tested on: DU-145; test: Cytotoxicity against human DU145 cells assessed as cell viability after 24 hrs by MTT assay; type: functional, cell-based; settings: DU-145, 24 h

* C=C1C(O)[C@@]23CC[C@H]4[C@@](C)(CCC[C@@]4(C)C(=O)OCCBr)[C@@H]2CC[C@]1(O)C3 (stereo not given in full) | > 50 µM
* C=C1[C@@H]2CC[C@H]3[C@]4(C)CCCC(C)(C)[C@H]4C[C@@H](O)[C@]3(C2)[C@@H]1O | > 50 µM
* C=C1C(O)[C@@]23CC[C@H]4[C@@](C)(CCC[C@@]4(C)C(=O)OCCN4CCN(C)CC4)[C@@H]2CC[C@]1(O)C3 (stereo not given in full) | > 50 µM
* C[C@H]1C(=O)[C@@]23CC[C@@H]4[C@](C)(CO)CCC[C@@]4(C)C2=CC[C@]1(O)C3 | > 50 µM
* C[C@@H]1C(=O)[C@H]2C[C@]1(O)CC1=C2[C@]2(C)CCC[C@@](C)(CO)[C@H]2CC1 | > 50 µM
* C[C@H]1C(=O)[C@@]23CC[C@@H]4C(C)(C)[C@H](O)CC[C@@]4(C)[C@@H]2[C@@H](O)C[C@@H]1C3 | > 50 µM

For each of the items listed, what is its IC50?
1. C[C@H]1C(=O)[C@@]23C[C@H](O)[C@@H]4[C@@](C)(CO)CCC[C@@]4(C)C2=CC[C@]1(O)C3
2. C=C1[C@@H]2C[C@H](O)[C@H]3[C@]4(C)CCCC(C)(C)[C@H]4CC[C@]3(C2)[C@@H]1O
3. C=C1[C@@H]2CC(=O)[C@H]3[C@]4(C)CCCC(C)(C)[C@H]4CC[C@]3(C2)[C@@H]1O
4. C=C1C[C@]23C[C@H]1CC[C@H]2[C@@]1(C)[C@H](C[C@H]3OC(C)=O)C(C)(C)CC[C@@H]1O
5. C=C1C(=O)[C@H]2C[C@]1(O)CC1=C2[C@]2(C)CCCC(C)(C)[C@H]2CC1
6. C=C1[C@@H]2CC[C@H]3[C@]4(C)CCC[C@](C)(C(=O)O)[C@H]4CC[C@]3(C2)[C@@H]1OC(C)=O
7. C=C1C(O)[C@@]23CC[C@H]4[C@@](C)(CCC[C@@]4(C)C(=O)O)[C@@H]2CC[C@]1(O)C3 (stereo not given in full)
8. C=C1C(=O)[C@@]23CC[C@H]4[C@@](C)(CCC[C@@]4(C)C(=O)OC)[C@@H]2CC[C@]1(O)C3

1. > 50 µM
2. > 50 µM
3. > 50 µM
4. > 50 µM
5. 3.2 µM
6. > 50 µM
7. > 50 µM
8. 10.8 µM

Look up IC50 of `C=C1C(=O)[C@@]23CC[C@@H]4C(C)(C)CCC[C@@]4(C)C2=CC[C@]1(O)C3` and report it.
5.5 µM

* * *

experiment: Cytotoxicity against human RWPE1 cells assessed as cell viability after 24 hrs by MTT assay; assay type: cell-based; details: RWPE-1, 24 h
pIC50: −log10 of the molar value.
For each entry below, report its pIC50 value.

As a guide, the following entries are already answered.
• C=C1C[C@]23C[C@H]1CC[C@H]2[C@]1(C)CCCC(C)(C)[C@H]1C[C@H]3O = < 4.30
• C=C1[C@@H]2CC[C@H]3[C@]4(C)CCC[C@@](C)(CO)[C@H]4CC[C@]3(C2)[C@@H]1O = < 4.30
• C[C@H]1C(=O)[C@@]23CC[C@@H]4C(C)(C)[C@H](O)CC[C@@]4(C)[C@@H]2[C@@H](O)C[C@@H]1C3 = < 4.30
• C=C1C[C@]23C[C@H]1CC[C@H]2[C@@]1(C)[C@H](C[C@H]3OC(C)=O)C(C)(C)CC[C@@H]1O = < 4.30

Look up pIC50 for the entries below, preserving their order.
1. C[C@H]1C(=O)[C@@]23CC[C@@H]4C(C)(C)CCC[C@@]4(C)C2=CC[C@]1(O)C3
2. C=C1C(=O)[C@@]23CC[C@@H]4[C@@](C)(CO)CCC[C@@]4(C)C2=CC[C@@H]1C3
3. C=C1[C@@H]2CC[C@@H]3[C@@](CC[C@@H]4C(C)(C)CC[C@H](O)[C@]43C)(C2)[C@H]1O

< 4.30
4.41
< 4.30

Hi team, please reply with pIC50 for each item in this list.
1. C=C1C(=O)[C@H]2C[C@@H]1CC1=C2[C@]2(C)CCC[C@](C)(CO)[C@H]2CC1
2. C=C1C(=O)[C@@]23CC[C@H]4[C@@](C)(CCC[C@@]4(C)C(=O)O)[C@@H]2CC[C@]1(O)C3
3. C=C1[C@@H]2CC(=O)[C@H]3[C@]4(C)CCCC(C)(C)[C@H]4[C@@H](O)[C@@H](O)[C@]3(C2)[C@@H]1O
4. C[C@@H]1C(=O)[C@H]2C[C@]1(O)CC1=C2[C@]2(C)CCC[C@](C)(C=O)[C@H]2CC1
5. C[C@@H]1C(=O)[C@H]2C[C@]1(O)CC1=C2[C@]2(C)CCCC(C)(C)[C@H]2CC1
6. CC1=C[C@]23C[C@H]1CC[C@H]2[C@@]1(C)[C@H](C[C@H]3O)C(C)(C)CC[C@@H]1O
7. C[C@@H]1C(=O)[C@@]23CC[C@@H]4[C@@](C)(CO)CCC[C@@]4(C)C2=CC[C@]1(O)C3
8. C=C1C(=O)[C@@]23CC[C@@H]4[C@@](C)(C=O)CCC[C@@]4(C)C2=CC[C@]1(O)C3

1. < 4.30
2. 4.57
3. < 4.30
4. < 4.30
5. < 4.30
6. < 4.30
7. < 4.30
8. 4.90

Ref: ChEMBL document CHEMBL3425440
